Hey, just so you know, these numbers are from patent US20250270287A1.

Biological target: T1, Activin A (UniProt P08476 311-426)
T1 sequence (looked up): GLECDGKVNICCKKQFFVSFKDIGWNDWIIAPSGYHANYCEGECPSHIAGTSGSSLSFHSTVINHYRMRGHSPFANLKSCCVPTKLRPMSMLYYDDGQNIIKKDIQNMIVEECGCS
Test: SPR (Biacore 8K), Fc protein captured on anti-human IgG, ligand injected
Overview of recorded pKd for various binders
pKd (log units): -log10 of the concentration in mol/L.

{"Binder": "ActRIIB-B1B2B3B4 (SEQ ID NO: 119) chimera-Fc protein (Fc fusion, Tested as chimera-Fc protein; not shown: linker (if any) and Fc domain) GRGEAETRECLFFNANWELERTNQTGVEPCEGEQDKRRHCFATWKNISGSIEIVKQGCWLDDFNCYDRQECVATEENPQVYFCCCEGNFCNERFTHLPEAGGPEVTYEPPPTAPT", "pKd": 11.18}

Below: the item to evaluate.
Query: Look up pKd for this binder: ActRIIA-A5 (SEQ ID NO: 107) chimera-Fc protein (Fc fusion, Tested as chimera-Fc protein; not shown: linker (if any) and Fc domain) GAILGRSETQECLFFNANWEKDRTNQTGVEPCYGDKDKRRHCFATWKNISGSIEIVKQGCWLDDFNCYDRQECVEKKDSPEVYFCCCEGNMCNEKFSYFPEMEVTQPTS
Result: 10.32
